Recorded shrunken log2 fold change for the following sequences
System: Escherichia coli TOP10;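 also: peptides expressed intracellularly from a pBAD plasmid library in pooled LB shake-flask culture, induced with 0.3% L-arabinose, DNA abundance read by NGS, three biological replicates, DESeq2 with apeglm shrinkage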
test method notes: shrunken log2 fold change of peptide-encoding DNA abundance (4.5 h post-induction vs induction); higher = less antimicrobial activity (less host growth inhibition)
stated conditions: time post-induction: 4.5 h; library: site-saturation at positions 5, 18, 19, 20
property label: shrunken log2 fold change

1) RRIRHRPPRLPRPRPRPTYGPRP = -0.106
2) RRIRARPPRLPRPRPRPVGDPRP = 0.515
3) RRIRTRPPRLPRPRPRPTEEPRP = 0.12
4) RRIRKRPPRLPRPRPRPTCWPRP = 0.499
5) RRIRRRPPRLPRPRPRPHWHPRP = 0.0772
6) RRIRRRPPRLPRPRPRPDLEPRP = 0.0267
7) RRIRWRPPRLPRPRPRPWYSPRP = -0.534
8) RRIRRRPPRLPRPRPRPICVPRP = 0.0261
9) RRIRMRPPRLPRPRPRPFQRPRP = -0.0335
10) RRIRHRPPRLPRPRPRPVPMPRP = 0.0504
11) RRIRSRPPRLPRPRPRPGYTPRP = -0.129
12) RRIRARPPRLPRPRPRPPQWPRP = 0.814
13) RRIRVRPPRLPRPRPRPNYKPRP = -0.509
14) RRIRNRPPRLPRPRPRPPIPPRP = -0.0646
15) RRIRGRPPRLPRPRPRPNPQPRP = 0.0794
16) RRIRVRPPRLPRPRPRPWSNPRP = -0.0426
17) RRIRARPPRLPRPRPRPHRQPRP = 0.29
18) RRIRQRPPRLPRPRPRPWSPPRP = -0.106
19) RRIRIRPPRLPRPRPRPKHCPRP = -0.405
20) RRIRVRPPRLPRPRPRPIDDPRP = -0.14
21) RRIRSRPPRLPRPRPRPDEHPRP = -0.125
22) RRIRPRPPRLPRPRPRPTYHPRP = -0.274
23) RRIRPRPPRLPRPRPRPMESPRP = 0.0152
24) RRIRARPPRLPRPRPRPGNQPRP = -0.0242
25) RRIRHRPPRLPRPRPRPDGMPRP = -0.444
26) RRIRHRPPRLPRPRPRPNTCPRP = -0.53
27) RRIRRRPPRLPRPRPRPSSDPRP = 0.0273
28) RRIRIRPPRLPRPRPRPTFLPRP = -0.679
29) RRIRKRPPRLPRPRPRPELYPRP = 0.0137
30) RRIRWRPPRLPRPRPRPPNCPRP = -0.11
31) RRIRSRPPRLPRPRPRPCTSPRP = -0.0192
32) RRIRYRPPRLPRPRPRPVWAPRP = 0.205
33) RRIRSRPPRLPRPRPRPTVAPRP = 0.243
34) RRIRTRPPRLPRPRPRPNNTPRP = -0.518
35) RRIRPRPPRLPRPRPRPWAMPRP = -0.223
36) RRIRMRPPRLPRPRPRPECTPRP = 2.91
37) RRIRARPPRLPRPRPRPFLCPRP = 0.0599
38) RRIRWRPPRLPRPRPRPMIRPRP = -0.348
39) RRIRNRPPRLPRPRPRPSGHPRP = -0.141
40) RRIRRRPPRLPRPRPRPDMCPRP = 0.019
41) RRIRLRPPRLPRPRPRPHSQPRP = -0.0709
42) RRIRTRPPRLPRPRPRPPWLPRP = 0.547
43) RRIRGRPPRLPRPRPRPYTGPRP = -0.707
44) RRIRCRPPRLPRPRPRPAHHPRP = -0.222
45) RRIRGRPPRLPRPRPRPVPPPRP = 1.17
46) RRIRNRPPRLPRPRPRPALRPRP = 0.0951
47) RRIRVRPPRLPRPRPRPMTSPRP = -0.128
48) RRIRRRPPRLPRPRPRPAMEPRP = 0.019
49) RRIRRRPPRLPRPRPRPYSGPRP = -0.000826
50) RRIRPRPPRLPRPRPRPNLSPRP = -0.168
51) RRIRMRPPRLPRPRPRPLTLPRP = -0.1
52) RRIRERPPRLPRPRPRPVPRPRP = 0.151
53) RRIRIRPPRLPRPRPRPDHIPRP = -0.0811
54) RRIRIRPPRLPRPRPRPDLMPRP = -0.396
55) RRIRYRPPRLPRPRPRPFMDPRP = -0.2
56) RRIRLRPPRLPRPRPRPFCKPRP = -0.101
57) RRIRCRPPRLPRPRPRPQENPRP = -0.0731
58) RRIRMRPPRLPRPRPRPDIDPRP = 0.467
59) RRIRVRPPRLPRPRPRPMNSPRP = -0.675
60) RRIRHRPPRLPRPRPRPYRFPRP = -0.269
61) RRIRFRPPRLPRPRPRPWGEPRP = 0.0156
62) RRIRIRPPRLPRPRPRPETDPRP = -0.0362
63) RRIRTRPPRLPRPRPRPVCTPRP = 0.162
